Numbers sourced from ChEMBL document CHEMBL4152244.

I'd be grateful if you could share measured inhibition for these entries.
target: UniProt:O15530; assay: Inhibition of recombinant human N-terminal His6-fused pdk1 expressed in Sf9 insect cells at 10 uM using tetra (LRRWSLG) as substrate after 60 mins in presence of [gamma-33P]-ATP by microplate scintillation counting method relative to control
Sequence (O15530 whole entry, the tested form may be a part): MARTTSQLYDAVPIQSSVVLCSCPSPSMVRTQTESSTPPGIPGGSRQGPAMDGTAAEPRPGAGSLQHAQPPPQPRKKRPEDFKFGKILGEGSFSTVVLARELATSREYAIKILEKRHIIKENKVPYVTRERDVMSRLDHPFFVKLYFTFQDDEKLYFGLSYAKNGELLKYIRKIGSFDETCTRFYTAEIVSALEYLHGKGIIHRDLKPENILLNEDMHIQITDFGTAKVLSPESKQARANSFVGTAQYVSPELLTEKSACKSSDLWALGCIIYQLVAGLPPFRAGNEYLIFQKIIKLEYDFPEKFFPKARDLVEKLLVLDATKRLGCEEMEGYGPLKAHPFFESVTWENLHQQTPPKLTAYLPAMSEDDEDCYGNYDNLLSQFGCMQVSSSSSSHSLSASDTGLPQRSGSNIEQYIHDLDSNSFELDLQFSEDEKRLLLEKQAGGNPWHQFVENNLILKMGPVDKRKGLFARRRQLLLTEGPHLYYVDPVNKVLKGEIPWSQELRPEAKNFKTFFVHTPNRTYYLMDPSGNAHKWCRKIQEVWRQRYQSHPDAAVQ
Give your result in % as a bare value.

Query string: Which inhibition is reported for this compound? O=S(=O)(NCCc1cccc(F)c1)c1cc(-c2ccc(COc3cccc(C(F)(F)F)c3)cc2)cc(C(F)(F)F)c1
Result string: 50.8

Query string: Which inhibition is reported for this compound? O=S(=O)(NCCc1cccc(F)c1)c1cc(-c2ccc(-c3cccs3)s2)cc(C(F)(F)F)c1
Result string: 40.3

Query string: Which inhibition is reported for this compound? COc1ccc(F)cc1-c1cc(C(F)(F)F)cc(S(=O)(=O)NCCc2cccc(F)c2)c1
Result string: 40.5

###

target: Receptor tyrosine-protein kinase erbB-4 (Homo sapiens, UniProt Q15303); assay: Inhibition of recombinant human N-terminal GST-His6-fused erbB4 expressed in Sf9 insect cells at 10 uM using poly (Glu, Tyr) 4:1 as substrate after 60 mins in presence of [gamma-33P]-ATP by microplate scintillation counting method relative to control
Sequence (Q15303 whole entry, the tested form may be a part): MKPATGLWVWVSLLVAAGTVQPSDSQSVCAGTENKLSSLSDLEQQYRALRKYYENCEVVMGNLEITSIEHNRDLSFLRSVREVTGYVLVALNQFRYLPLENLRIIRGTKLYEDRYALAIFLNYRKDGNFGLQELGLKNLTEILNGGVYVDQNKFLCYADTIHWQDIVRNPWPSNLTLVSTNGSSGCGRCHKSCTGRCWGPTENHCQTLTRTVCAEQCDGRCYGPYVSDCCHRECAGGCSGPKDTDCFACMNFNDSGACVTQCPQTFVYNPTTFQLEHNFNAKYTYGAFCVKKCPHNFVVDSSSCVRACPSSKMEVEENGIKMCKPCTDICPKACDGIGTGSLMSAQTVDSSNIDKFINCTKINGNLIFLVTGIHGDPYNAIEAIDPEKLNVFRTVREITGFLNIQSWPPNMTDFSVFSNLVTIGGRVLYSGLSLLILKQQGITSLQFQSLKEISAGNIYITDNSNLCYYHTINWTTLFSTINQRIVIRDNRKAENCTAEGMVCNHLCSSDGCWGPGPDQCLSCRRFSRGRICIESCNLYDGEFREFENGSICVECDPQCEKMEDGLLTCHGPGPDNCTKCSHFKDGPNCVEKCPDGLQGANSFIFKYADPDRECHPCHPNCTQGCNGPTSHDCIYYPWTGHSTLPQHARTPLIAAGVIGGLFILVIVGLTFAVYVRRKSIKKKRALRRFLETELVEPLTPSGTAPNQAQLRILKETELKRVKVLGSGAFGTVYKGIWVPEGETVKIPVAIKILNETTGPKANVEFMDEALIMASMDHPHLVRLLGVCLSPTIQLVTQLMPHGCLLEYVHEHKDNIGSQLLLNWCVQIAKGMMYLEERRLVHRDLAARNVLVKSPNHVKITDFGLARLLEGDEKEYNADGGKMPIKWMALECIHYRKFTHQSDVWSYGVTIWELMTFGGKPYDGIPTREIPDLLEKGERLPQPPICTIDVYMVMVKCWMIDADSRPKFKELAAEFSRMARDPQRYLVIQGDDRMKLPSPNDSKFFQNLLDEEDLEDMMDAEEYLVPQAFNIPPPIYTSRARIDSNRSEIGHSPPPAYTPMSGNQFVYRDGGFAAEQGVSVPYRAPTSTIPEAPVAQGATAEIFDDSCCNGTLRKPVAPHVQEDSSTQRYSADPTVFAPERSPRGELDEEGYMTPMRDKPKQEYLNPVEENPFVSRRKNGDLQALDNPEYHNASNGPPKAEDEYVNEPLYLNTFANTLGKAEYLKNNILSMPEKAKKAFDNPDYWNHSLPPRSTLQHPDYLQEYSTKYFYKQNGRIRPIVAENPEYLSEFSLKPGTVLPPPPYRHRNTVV
MEASUREMENT_KIND: inhibition (%)
Give your result in % as a bare value.

Query string: Which inhibition is reported for this molecule? O=S(=O)(NCCc1cccc(F)c1)c1cc(-c2cc3ccccc3[nH]2)cc(C(F)(F)F)c1
Result string: 4.6

Query string: Which inhibition is reported for this molecule? O=S(=O)(NCCc1cccc(F)c1)c1cc(-c2cccc3c2oc2ccccc23)cc(C(F)(F)F)c1
Result string: 50.5

Query string: Which inhibition is reported for this molecule? COCCc1ccc(OCc2ccc(-c3cc(C(F)(F)F)cc(S(=O)(=O)NCCc4cccc(F)c4)c3)cc2)cc1
Result string: 67.7

Query string: Which inhibition is reported for this molecule? O=S(=O)(NCCc1cccc(F)c1)c1cc(-c2ccnc(F)c2)cc(C(F)(F)F)c1
Result string: 18.4

Query string: Which inhibition is reported for this molecule? O=S(=O)(NCCc1cccc(F)c1)c1cc(-c2cccnc2)cc(C(F)(F)F)c1
Result string: 15.7

Query string: Which inhibition is reported for this molecule? COc1ncc(-c2cc(C(F)(F)F)cc(S(=O)(=O)NCCc3cccc(F)c3)c2)c(OC)n1
Result string: 10.3

Query string: Which inhibition is reported for this molecule? O=S(=O)(NCCc1cccc(F)c1)c1cc(-c2cccc3c2Sc2ccccc2S3)cc(C(F)(F)F)c1
Result string: 57.9

Query string: Which inhibition is reported for this molecule? O=S(=O)(NCCc1cccc(F)c1)c1cc(-c2ccc(COc3cccc4ccccc34)cc2)cc(C(F)(F)F)c1
Result string: 49

Query string: Which inhibition is reported for this molecule? O=S(=O)(NCCc1cccc(F)c1)c1cc(-c2ccc(-c3cccs3)s2)cc(C(F)(F)F)c1
Result string: 57
